Hey, just so you know, these numbers are from ChEMBL document CHEMBL1142343.

Tested on: Streptococcus pneumoniae
ASSAY_INFO: Antibacterial activity against Streptococcus pneumoniae by microdilution broth method
Type: functional
So basically: is MIC under 8 µg/mL? Then criterion met. Not under? Then criterion not met.

Dear colleague, could you confirm whether MIC of O=C(NC1CCCCC1)C1=C(O)C(CCc2ccccc2)NC1=O (configuration not stated) falls below 8 µg/mL? Thanks.
criterion not met

Dear colleague, could you confirm whether MIC of O=C(Nc1ccc(C2CCCCC2)cc1)C1=C(O)C(Cc2ccccc2)OC1=O (configuration not stated) falls below 8 µg/mL? Thanks.
criterion met

Dear colleague, could you confirm whether MIC of O=C(Nc1ccc(C2CCCCC2)cc1)C1=C(O)CC(C2CCCCC2)NC1=O (configuration not stated) falls below 8 µg/mL? Thanks.
criterion not met

Dear colleague, could you confirm whether MIC of O=C(Nc1ccc(Cl)cc1)C1=C(O)C(c2ccccc2)OC1=O (configuration not stated) falls below 8 µg/mL? Thanks.
criterion not met

Dear colleague, could you confirm whether MIC of O=C(Nc1ccc(C2CCCCC2)cc1)C1=C(O)CC(c2ccccc2)NC1=O (configuration not stated) falls below 8 µg/mL? Thanks.
criterion met

Dear colleague, could you confirm whether MIC of O=C(Nc1cc(Cl)cc(Cl)c1)C1=C(O)C(c2ccccc2)OC1=O (configuration not stated) falls below 8 µg/mL? Thanks.
criterion met

Dear colleague, could you confirm whether MIC of O=C(NC1CCCCC1)C1=C(O)CC(Cc2ccccc2)NC1=O (configuration not stated) falls below 8 µg/mL? Thanks.
criterion not met

Dear colleague, could you confirm whether MIC of O=C1NCC(CC2CCCCC2)C(O)=C1C(=O)Nc1ccc(-n2ccnc2)cc1 (configuration not stated) falls below 8 µg/mL? Thanks.
criterion not met

Dear colleague, could you confirm whether MIC of O=C(Nc1ccc(N2CCCCC2)cc1)C1=C(O)C(CCc2ccccc2)NC1=O (configuration not stated) falls below 8 µg/mL? Thanks.
criterion met

Dear colleague, could you confirm whether MIC of O=C(Nc1ccc(Oc2ccccc2)cc1)C1=C(O)CC(Cc2ccccc2)NC1=O (configuration not stated) falls below 8 µg/mL? Thanks.
criterion not met
